test system: Enterobacter cloacae VGH 84-37; test: in vitro antibacterial MIC, agar plate dilution; format: cell-based; conditions: Enterobacter cloacae, VGH8437, 18 h, 35° C., read-out: MIC
Property Label: MIC (µg/mL)

Here is how some compounds turned out for MIC.
{"columns": ["Compound", "Property Label", "Readout Units", "Test Result"],
 "data": [
  ["CCn1cc(C(=O)O)c(=O)c2cc(F)c(N3CCNC(c4ccc(Br)s4)C3)cc21 (centres unmarked)", "MIC", "µg/mL", 32],
  ["CCn1cc(C(=O)O)c(=O)c2cc(F)c(N3CCN(C)C(c4ccco4)C3)cc21 (centres unmarked)", "MIC", "µg/mL", 1],
  ["CCn1cc(C(=O)O)c(=O)c2cc(F)c(N3CCNC(c4ccc(C)o4)C3)cc21 (centres unmarked)", "MIC", "µg/mL", 0.25],
  ["CCn1cc(C(=O)O)c(=O)c2cc(F)c(N3CCNC(CO)C3)cc21.Cl (centres unmarked)", "MIC", "µg/mL", 1],
  ["CCn1cc(C(=O)O)c(=O)c2cc(F)c(N3CCN(C)C(c4ccc(C)s4)C3)cc21 (centres unmarked)", "MIC", "µg/mL", 8],
  ["CCn1cc(C(=O)O)c(=O)c2cc(F)c(N3CCN(C)C(COC)C3)cc21 (centres unmarked)", "MIC", "µg/mL", 1],
  ["CCn1cc(C(=O)O)c(=O)c2cc(F)c(N3CCNC(c4cc(Cl)sc4Cl)C3)cc21 (centres unmarked)", "MIC", "µg/mL", 16],
  ["CCn1cc(C(=O)O)c(=O)c2cc(F)c(N3CCNC(c4cc(C)sc4C)C3)cc21 (centres unmarked)", "MIC", "µg/mL", 2],
  ["CCn1cc(C(=O)O)c(=O)c2cc(F)c(N3CCNC(c4cc5ccccc5o4)C3)cc21 (centres unmarked)", "MIC", "µg/mL", 0.5],
  ["CCn1cc(C(=O)O)c(=O)c2cc(F)c(N3CCN(C)C(c4ccn(S(=O)(=O)c5ccccc5)c4)C3)cc21 (centres unmarked)", "MIC", "µg/mL", 256]
]}

(1) CCn1cc(C(=O)O)c(=O)c2cc(F)c(N3CCN(C)C(c4ccsc4)C3)cc21 (centres unmarked)
(2) CCn1cc(C(=O)O)c(=O)c2cc(F)c(N3CCNC(c4ccc(C)s4)C3)cc21 (centres unmarked)
Lookup: So which one has the bigger MIC here, 1 or 2 ? Could you answer with the label of the item you picked?
Found: 1

(A) CCn1cc(C(=O)O)c(=O)c2cc(F)c(N3CCN(C)C(COc4ccccc4)C3)cc21 (centres unmarked)
(B) CCn1cc(C(=O)O)c(=O)c2cc(F)c(N3CCNC(c4cc5cc(Cl)ccc5o4)C3)cc21 (centres unmarked)
Lookup: So which one has the bigger MIC here, A or B ? Could you answer with the label of the item you picked?
Found: B

Data origin: patent US5210193A
